# Tested on: MARK2
# condition_details: concentration: 1 μM, replicates: in singlicate; n = 1;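 also: KINOMEscan kinase panel screen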
Threshold check on %Inh: strictly below 20% is met; on or above 20% is not met.

molecule: COc1cc(Nc2nccc(N3CCC(NS(=O)(=O)c4ccc(NC(C)=O)cc4)CC3)n2)cc(OC)c1OC
measurement_target: MARK2
cat: met
//
molecule: CC(C)NCC(Cc1ccccc1)NC(=O)c1cc(Br)c(-c2ccnc3[nH]ccc23)s1.Cl.Cl (stereo not shown)
measurement_target: MARK2
cat: not met
//
molecule: COc1cccc2c(-c3ccncc3)c(-c3ccc(F)cc3)nn12
measurement_target: MARK2
cat: met
//
molecule: O=C(Nc1n[nH]c2nc(-c3cccc(O)c3)ccc12)C1CC1
measurement_target: MARK2
cat: not met
//
molecule: CN(C)c1ncnc2nc[nH]c12
measurement_target: MARK2
cat: met
//
molecule: CCOc1nccc(-c2c(-c3ccc(F)cc3)ncn2C2CCNCC2)n1
measurement_target: MARK2
cat: not met
//
molecule: CNc1nccc(-c2ccc3c(N)n[nH]c3c2)n1
measurement_target: MARK2
cat: not met

====

# Test system: AKT1
# condition_details: concentration: 1 μM, replicates: in singlicate; n = 1
experimental_readout: %Inh (%)

compound: CN(c1ccc(NC(=O)Nc2cccc(Cl)c2)cc1)c1ccnc(N)n1.Cl [GW830707]
endpoint_result: 23
//
compound: Cn1cc(-c2ccc3c(c2)CCN3C(=O)Cc2cc(F)cc(C(F)(F)F)c2)c2c(N)ncnc21 [GSK2635225]
endpoint_result: 0
//
compound: Cc1cc(-c2ccnc(Nc3cccc(C#N)c3)n2)cc(C)c1O [GSK1440913]
endpoint_result: 0
//
compound: CSc1ccc(NC2=C(c3ccc(Cl)cc3)C(=O)NC2=O)cc1 [SB-317658]
endpoint_result: 9
//
compound: c1ccc(Oc2ccc(Nc3ccnc4cc(-c5ccc(CN6CCCCC6)o5)ccc34)cc2)nc1 [GW567143]
endpoint_result: 0

====

# Test system: NLK
# condition_details: concentration: 1 μM, replicates: in singlicate; n = 1
Listed compounds paired with reported %Inh
experimental_readout: %Inh (%)

smiles_repr: CC(C)c1nc(-c2cccc(NS(=O)(=O)c3c(F)cccc3F)c2)c(-c2ccnc(Nc3ccc(N4CCOCC4)nc3)n2)s1.Cl
measurement_target: NLK
experimental_readout: %Inh
endpoint_result: 97
--
smiles_repr: Cc1ccc(Nc2ccnc(Nc3ccc(C)c(F)c3)n2)cc1O.Cl
measurement_target: NLK
experimental_readout: %Inh
endpoint_result: 62
--
smiles_repr: COc1cccc(C2=C(Nc3cccc(O)c3)C(=O)NC2=O)c1
measurement_target: NLK
experimental_readout: %Inh
endpoint_result: 15
--
smiles_repr: COC(=O)Nc1nc2ccc(Oc3ccc(CC(=O)Nc4cc(C(F)(F)F)ccc4F)cc3)cc2[nH]1
measurement_target: NLK
experimental_readout: %Inh
endpoint_result: 22
--
smiles_repr: Cc1nn2c(=O)cc(N3CCO[C@H](C)C3)nc2n1Cc1cccc(Cl)c1Cl
measurement_target: NLK
experimental_readout: %Inh
endpoint_result: 78
--
smiles_repr: CN(C)CCOc1ccc(-c2cc(-c3ccc(Cl)c(O)c3)c(-c3ccncc3)[nH]2)cc1.Cl.Cl
measurement_target: NLK
experimental_readout: %Inh
endpoint_result: 66
--
smiles_repr: N#Cc1cnc2cc(-c3cnc(CNCCN4CCOCC4)s3)ccc2c1Nc1ccc(Oc2ccccc2)cc1
measurement_target: NLK
experimental_readout: %Inh
endpoint_result: 0
--
smiles_repr: CC(C)c1nc(-c2ccc(F)c(NS(=O)(=O)c3c(F)cccc3F)c2)c(-c2ccnc(Nc3ccc(N4CCOCC4)nc3)n2)s1
measurement_target: NLK
experimental_readout: %Inh
endpoint_result: 96.3

Source listed as paper PMC5540273.
